- System: MOLT-4 leukemia
- assay-explanation: NCI-60 one-dose screen, 48 h (100 = growth as untreated, 0 = no growth, -100 = all killed)
- run-conditions: 10 µM
Compounds without any hit were thinned out: in the full panel of roughly 83,000, 20% have a hit.
quantity: growth (%)

[
  {
    "compound": "COc1ccccc1N1CCCSC1=Nc1ccccc1",
    "quantity": "growth",
    "observed-measurement": 62.1
  },
  {
    "compound": "COc1cc2c3c(n(C4CCNCC4)c(=O)c2cc1OC)-c1cc2c(cc1C3=O)OCO2",
    "quantity": "growth",
    "observed-measurement": -27.1
  },
  {
    "compound": "Cc1cc(CCNC=O)c(C)c2c1sc1ccccc12",
    "quantity": "growth",
    "observed-measurement": 94.5
  },
  {
    "compound": "CC(=O)C1CCC2C3CC=C4CC(SC(=N)N)CCC4(C)C3CCC12C (configuration not stated)",
    "quantity": "growth",
    "observed-measurement": -5.72
  },
  {
    "compound": "NS(=O)(=O)Oc1ccc2c(ccn2C(=O)C23CC4CC(CC(C4)C2)C3)c1",
    "quantity": "growth",
    "observed-measurement": 101
  },
  {
    "compound": "COc1ccc(-c2nn(-c3cccc(Cl)c3)cc2-c2c(C#N)c(=O)n3[nH]c(-c4ccc(C)cc4)nc3c2C#N)cc1",
    "quantity": "growth",
    "observed-measurement": -23.8
  },
  {
    "compound": "Cc1ccc(NCCN(C)CC(C)O)c2c(=O)c3ccccc3sc12 (configuration not stated)",
    "quantity": "growth",
    "observed-measurement": 2.58
  }
]

====

- Test system: OVCAR-8 ovarian
- assay-explanation: NCI-60 one-dose screen, 48 h (100 = growth as untreated, 0 = no growth, -100 = all killed)
- run-conditions: 10 µM
This is part of a sample that, as a whole, favours compounds with a hit. Of some 83,000 tested, about 20% had one in any assay.
# growth per record follows
quantity: growth (%)

[
  {
    "compound": "C[C@]12CC[C@@H]3c4ccc(OS(=O)(=O)O)cc4CC[C@H]3[C@@H]1CC[C@@H]2NS(=O)(=O)c1ccc(-c2ccccc2)cc1",
    "observed-measurement": 67.6
  },
  {
    "compound": "CN1CCc2c(sc3nc4n(-c5ccc(Cl)cc5)cnn4c(=O)c23)C1",
    "observed-measurement": 100
  },
  {
    "compound": "Cc1cc(=O)n2nnc3cc(Cl)c(Cl)cc3n12",
    "observed-measurement": 106
  },
  {
    "compound": "Cc1c(C(N)=O)sc2c1c(=O)n(Cc1ccccc1)c1nnc(-c3ccc(Br)cc3)n21",
    "observed-measurement": 0.274
  },
  {
    "compound": "COc1cccc2ccc(CC(O)(c3ccccc3)c3ccccc3)nc12",
    "observed-measurement": 91.5
  },
  {
    "compound": "O=C(N/N=C/c1ccc([N+](=O)[O-])cc1)c1ccccc1Nc1cccc(C(F)(F)F)c1",
    "observed-measurement": 95.8
  },
  {
    "compound": "COc1ccc(-c2nn(-c3cccc(Cl)c3)cc2/C=C2\\NC(=S)N(c3ccc(Cl)cc3)C2=O)cc1",
    "observed-measurement": 21.9
  },
  {
    "compound": "COc1ccc2cc(-c3nc4ccccc4s3)c(Cl)nc2c1OC",
    "observed-measurement": 103
  },
  {
    "compound": "O=C(Cn1cc(CO)nn1)Nc1nc2ccccc2s1",
    "observed-measurement": 99.4
  },
  {
    "compound": "CCN1C(=O)CC(SC2CC(=O)N(CC)C2=O)C1=O (stereo not drawn)",
    "observed-measurement": 109
  },
  {
    "compound": "O=C1OC(C(Cl)(Cl)Cl)OC1C(Cl)(Cl)Cl (stereo not drawn)",
    "observed-measurement": 104
  },
  {
    "compound": "O=C(CSc1nnc(-c2ccc(Cl)cc2)o1)Nc1ccc(C(=O)/C=C/c2ccc(Cl)cc2)cc1",
    "observed-measurement": 100
  },
  {
    "compound": "COc1ccc(-c2nn(-c3cccc(Cl)c3)cc2-c2c(C#N)c(=O)n3[nH]c(-c4ccc(C)cc4)nc3c2C#N)cc1",
    "observed-measurement": 14.3
  },
  {
    "compound": "COc1cc(-c2csc(NC(=O)Nc3ccc(Cl)c(C(F)(F)F)c3)n2)cc(OC)c1OC",
    "observed-measurement": 4.2
  },
  {
    "compound": "CCC(=O)OC1CCC2C3CCC(=O)OC3C(C)(CCC(=O)O)CC12C (stereo not drawn)",
    "observed-measurement": 61.4
  },
  {
    "compound": "Cc1cc(C)nc(NS(=O)(=O)c2ccc(Nc3nc4nc(NCc5ccccc5)nc(-c5ccc(O)cc5)c4c(=O)[nH]3)cc2)n1",
    "observed-measurement": 49.5
  },
  {
    "compound": "O=C(Nc1ccc2c(O)cc(S(=O)(=O)O)cc2c1)c1ccc([N+](=O)[O-])cc1",
    "observed-measurement": 88.9
  },
  {
    "compound": "O=c1cn[nH]c2ccc(Br)cc12",
    "observed-measurement": 98.8
  },
  {
    "compound": "COc1ccc([C@H]2[C@H](C(=O)Nc3cccnc3)c3ccccc3C(=O)N2c2ccccc2)cc1",
    "observed-measurement": 96.1
  },
  {
    "compound": "Oc1cccc(-c2nc3sccn3c2-c2ccncn2)c1",
    "observed-measurement": 102
  },
  {
    "compound": "COc1cc2nc(SCC(=O)Nc3cc(OC)c(OC)c(OC)c3)n(Cc3ccccc3)c(=O)c2cc1OC",
    "observed-measurement": -4.94
  },
  {
    "compound": "NS(=O)(=O)Oc1ccc2c(ccn2C(=O)C23CC4CC(CC(C4)C2)C3)c1",
    "observed-measurement": 105
  },
  {
    "compound": "CCOC(=O)CN(c1sc(C)c(C)c1C(=O)OCC)S(=O)(=O)c1ccc(C)cc1",
    "observed-measurement": 105
  },
  {
    "compound": "CCN1CCN(CCC(=O)Nc2cccc(-n3cc(-c4ccncc4)c(-c4ccc(Cl)c(OC)c4)n3)c2)CC1",
    "observed-measurement": 24.2
  },
  {
    "compound": "COc1ccc(C2CC(c3cccs3)=NN2c2ccc(S(N)(=O)=O)cc2)cc1 (stereo not drawn)",
    "observed-measurement": 84.4
  },
  {
    "compound": "CCN(CCCNc1cc2c(c(N)c1S(=O)(=O)O)C(=O)c1ccccc1C2=O)c1ccccc1",
    "observed-measurement": 96.4
  },
  {
    "compound": "CC(CN(C)C)Oc1ccc(OC(C)CN(C)C)c2c1C(=O)c1ccccc1C2=O (stereo not drawn)",
    "observed-measurement": 30.1
  },
  {
    "compound": "COc1ccc(/C=C2\\CCCC3=C2NC(N)=NC3c2ccc(OC)c(OC)c2)cc1OC (stereo not drawn)",
    "observed-measurement": 10.6
  }
]

====

Reported growth values for a set of compounds
- System: PC-3 prostate
- assay-explanation: NCI-60 one-dose screen, 48 h (100 = growth as untreated, 0 = no growth, -100 = all killed)
- run-conditions: 10 µM
Compounds without any hit were thinned out: in the full panel of roughly 83,000, 20% have a hit.

[
  {
    "compound": "CCC(=O)OC1CCC2C3CCC(=O)OC3C(C)(CCC(=O)O)CC12C (centres undefined)",
    "unit-info": "%",
    "growth": 31.4
  },
  {
    "compound": "CN1C(=O)C2(Nc3cc(Cl)ccc3S2)c2cc(Cl)ccc21 (centres undefined)",
    "unit-info": "%",
    "growth": 73.7
  },
  {
    "compound": "COc1ccc2c(c1)C(=O)/C(=C/c1cccc(OCC(=O)c3ccc([N+](=O)[O-])cc3)c1)CO2",
    "unit-info": "%",
    "growth": 22.5
  },
  {
    "compound": "COc1cc2cc(Oc3ccc(NC(=O)c4cc(C(F)(F)F)cc(C(F)(F)F)c4)cc3)c(C)nc2cc1OC",
    "unit-info": "%",
    "growth": 17.5
  }
]

====

- Test system: SK-MEL-5 melanoma
- assay-explanation: NCI-60 one-dose screen, 48 h
- run-conditions: 10 µM
This is part of a sample that, as a whole, favours compounds with a hit. Of some 83,000 tested, about 20% had one in any assay. Activity calls are given as the source filed them. The calls were made as follows: active = growth percent below 10; inactive = the rest.
Labels: Y (active), N (inactive)

[
  {
    "compound": "Cc1cn(-c2cc(F)cc(NC(=O)c3ccc(C)c(Nc4nccc(-c5cccnc5)n4)c3)c2)cn1",
    "assigned-label": "N"
  },
  {
    "compound": "OCC1OC2C(NC(=S)N2c2ccccc2)C(O)C1O (configuration not stated)",
    "assigned-label": "N"
  },
  {
    "compound": "c1cnc2[nH]cc(-c3nc(-c4ccsc4)cs3)c2c1",
    "assigned-label": "N"
  },
  {
    "compound": "CSc1ccc(-c2cc(-c3ccc(NC(=O)CCCN4CCCC4)cc3)nc(-c3ccc(NC(=O)CCCN4CCCC4)cc3)c2)cc1",
    "assigned-label": "N"
  },
  {
    "compound": "CCOC(=O)c1cc(C(=O)c2cc(OC)cc(OC)c2)n2ncc3ccccc3c12",
    "assigned-label": "N"
  },
  {
    "compound": "CCN1C(=O)CC(SC2CC(=O)N(CC)C2=O)C1=O (configuration not stated)",
    "assigned-label": "N"
  },
  {
    "compound": "COc1cc2nc(SCC(=O)Nc3cc(OC)c(OC)c(OC)c3)n(Cc3ccccc3)c(=O)c2cc1OC",
    "assigned-label": "N"
  },
  {
    "compound": "CN(C)CCCN1c2ccccc2CCc2ccc(Cl)cc21",
    "assigned-label": "Y"
  },
  {
    "compound": "CCn1cc(CNc2ccc(C(=O)Nc3ccc4ccccc4c3)cc2)c(C)n1",
    "assigned-label": "Y"
  },
  {
    "compound": "COc1cc(/C=C2\\CCCC3=C2N=C2SC(C)=CN2C3c2cc(OC)c(OC)c(OC)c2)cc(OC)c1OC (configuration not stated)",
    "assigned-label": "Y"
  },
  {
    "compound": "CC(C)(C)OC(=O)CN1CCc2c(sc3ncnc(N/N=C/c4cccc5ccccc45)c23)C1",
    "assigned-label": "N"
  },
  {
    "compound": "COC1OC(COS(=O)OC)C(O)C(O)C1OS(=O)OC (configuration not stated)",
    "assigned-label": "N"
  }
]

Data provenance: PubChem BioAssay (NCI)
